# System: OVCAR-3
# assay_method_text: NCI tumour cell line growth inhibition, 48 h
The source made the active and inactive calls. Cut-off read from the data, not from the text of the source: active = GI50 up to about 1.1 µM and inactive = higher.
Use one of these outcomes when replying: True (active), False (inactive)

[
  {
    "compound": "O=C(/C=C\\c1cccc2ccccc12)c1cccs1",
    "category": "False"
  }
]

Status in this test for C=C1CCCC2[C@](C)(CC3=C(Cl)C(=O)C=C(OC)C3=O)C(C)CC[C@]12C (stereo partly drawn) ?
False

Again, but for "COn1cc(CO)c2ccccc21"
False

Same question, CC(C)(C)NC(=O)CCC1C(C(=O)NC(C)(C)C)C2(Cl)C(Cl)=C(Cl)C1(Cl)C2(Cl)Cl (stereo not drawn) this time
False

Item: CCOC(=O)C1=C(C)N(NC(N)=O)C(C)(O)C12CCOC2=O (stereo not drawn)
False

Please do the same for "C#Cc1c(C)c(/C=C/C(C)=C/C=C/C(C)=C/C(=O)OC)n(C)c1C" as well.
False

Please give the result for CC(NC1CCCC[C@@H]1O)c1ccccc1 (stereo partly drawn) too.
False

And then [N-]=[N+]=NC1(N=[N+]=[N-])C(=O)NN=C(c2ccccc2)C1=O (stereo not drawn) , what is it?
False

The values you see were collected from ChEMBL document CHEMBL1201862.
